assay: TOR pathway GLN3 branch reporter MEP2-GFP changes – S. cerevisiae, multiplex flow cytometry, MLPCN library, primary screen (AID 2016);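 also: median GFP fluorescence of the barcode-gated MEP2-GFP cells per well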; conditions: S. cerevisiae MEP2-GFP strain, 3 h, at 10 µM, 100% = DMSO control level
Screen size: about 330,000 compounds; about 1,700 (0.52%) were called active.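 The calls were made as follows: active = GFP response versus DMSO above a set limit, roughly screen mean plus 3 SD (cut at about 180% in these data); inconclusive = fewer than 70 cells counted for a yeast strain; inactive = the rest.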 For the sample, actives were picked, then their nearest neighbours and some compounds at random.
Form entry, call: pick from T (active), F (inactive)

See these solved cases before continuing.
| compound | classLabel |
| --- | --- |
| COc1ccccc1NC(=O)C[n+]1ccccc1 | F |
| COc1ccc(S(=O)(=O)NCC(c2ccco2)N2CCOCC2)cc1 (stereo not drawn) | F |
| O=C1N=C(N2CCOCC2)CS1 | F |
| COc1ccc(Cl)cc1NC(=O)COC(=O)C(CC(C)C)N1C(=O)C2CC=CCC2C1=O (stereo not drawn) | F |
| CNC(=O)Nc1cc(C(C)(C)C)no1 | F |
| C/C(=N\NC(=O)c1cccnc1)c1ccc(-n2ccnc2)cc1 | F |
| COCCOC(=O)C1=C(C)NC(=O)NC1c1cc2c(cc1Br)OCO2 (stereo not drawn) | F |
| CC12c3ccccc3C(c3ccccc31)C1C(=O)N(Cc3cccnc3)C(=O)C12 (stereo not drawn) | F |

I would be grateful if you could indicate the recorded call for COc1ccc(C(=O)NCCSc2ccccc2C)cc1 .
F

Further, for Cc1cccc[n+]1CC(=O)c1ccccc1 ?
F

Note, next up: C/C(=N\NC(=O)c1cccnc1)c1ccc(-c2ccccc2)cc1
T

Do the same for O=C(COc1cc2oc(=O)c3c(c2cc1Cl)CCC3)NCCCN1CCOCC1 please
F

Another compound: O=C(Nc1ccccc1)c1ccc2nsnc2c1
F

And the next one, CCCCN1C(=O)c2ccc(C(=O)Nc3ccc(S(=O)(=O)N(C)C)cc3)cc2C1=O ?
F

And O=C1c2ccccc2NC(c2ccc(-c3cccc(Cl)c3)o2)N1O (stereo not drawn) ?
F

Follow-up entry: CC1CC(C)CN(CCCNC(=O)c2csc3c2CCCCC3)C1 (stereo not drawn)
F

Try this compound too: CCC(C)(C)c1ccc(OCC(=O)N(C)C)c(C(C)(C)CC)c1
F

====

experiment: TOR pathway GLN3 branch reporter MEP2-GFP changes – S. cerevisiae, multiplex flow cytometry, MLPCN library, primary screen (AID 2016);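 also: median GFP fluorescence of the barcode-gated MEP2-GFP cells per well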; conditions: S. cerevisiae MEP2-GFP strain, 3 h, at 10 µM, stronger effect = higher value, 100% = DMSO control level
The campaign covered roughly 330,000 compounds. About 1,700 (0.52%) were called active. For the sample, actives were picked, then their nearest neighbours and some compounds at random.
recordedMetric: GFP response vs DMSO

Consider the reported GFP response vs DMSO for these molecules:
| molecule | recordedMetric | result |
| --- | --- | --- |
| Cc1ccc(C2(c3ccc(C)cc3)NC(=O)N(Cc3c(C)noc3C)C2=O)cc1 | GFP response vs DMSO | 91.9% (inactive) |
| COc1cc(CN2CCCC(C(=O)c3ccc(SC)cc3)C2)cc(Cl)c1O (stereo not given) | GFP response vs DMSO | 596% [may fluoresce violet] (active) |

What measured GFP response vs DMSO goes with CCc1ccccc1NC(=O)CSc1nnc([C@@H](NC(=O)OC(C)(C)C)C(C)CC)o1 (stereo not given in full) ?
193% [may fluoresce violet] (active)

COc1ccc2[nH]c(=O)c(C3c4cc(OC)c(OC)cc4CCN3C(=O)c3ccco3)cc2c1 (stereo not given) , same question.
105% (inactive)

And COc1cccc(-n2c(SCC(=O)NC3CCS(=O)(=O)C3)nc3ccccc3c2=O)c1 (stereo not given) ?
109% (inactive)

And the next one, CCc1cccc(C)c1NS(=O)(=O)c1cc(Br)cnc1N ?
105% (inactive)

Now this one: Cc1cc(=O)oc2c3c(cc(OCC(=O)NCc4ccccn4)c12)OC(C)(C)CC3
100% (inactive)

Next molecule up: O=C(Cc1cccs1)N(CC1CCCO1)C1(C(=O)NC2CCCCC2)CCCCC1 (stereo not given)
88.4% (inactive)

Record: COc1ccc(CCNC(=S)N2CCN(S(=O)(=O)c3ccc(F)cc3)CC2)cc1
103% (inactive)

Follow-up entry: CCc1ccccc1NC(=O)CSc1nnc(CCNC(=O)OC(C)(C)C)o1
114% (inactive)

Sourced from PubChem BioAssay AID2016
